SYSTEM UNDER TEST: UniProt Q06418
Sequence (Q06418 41-890): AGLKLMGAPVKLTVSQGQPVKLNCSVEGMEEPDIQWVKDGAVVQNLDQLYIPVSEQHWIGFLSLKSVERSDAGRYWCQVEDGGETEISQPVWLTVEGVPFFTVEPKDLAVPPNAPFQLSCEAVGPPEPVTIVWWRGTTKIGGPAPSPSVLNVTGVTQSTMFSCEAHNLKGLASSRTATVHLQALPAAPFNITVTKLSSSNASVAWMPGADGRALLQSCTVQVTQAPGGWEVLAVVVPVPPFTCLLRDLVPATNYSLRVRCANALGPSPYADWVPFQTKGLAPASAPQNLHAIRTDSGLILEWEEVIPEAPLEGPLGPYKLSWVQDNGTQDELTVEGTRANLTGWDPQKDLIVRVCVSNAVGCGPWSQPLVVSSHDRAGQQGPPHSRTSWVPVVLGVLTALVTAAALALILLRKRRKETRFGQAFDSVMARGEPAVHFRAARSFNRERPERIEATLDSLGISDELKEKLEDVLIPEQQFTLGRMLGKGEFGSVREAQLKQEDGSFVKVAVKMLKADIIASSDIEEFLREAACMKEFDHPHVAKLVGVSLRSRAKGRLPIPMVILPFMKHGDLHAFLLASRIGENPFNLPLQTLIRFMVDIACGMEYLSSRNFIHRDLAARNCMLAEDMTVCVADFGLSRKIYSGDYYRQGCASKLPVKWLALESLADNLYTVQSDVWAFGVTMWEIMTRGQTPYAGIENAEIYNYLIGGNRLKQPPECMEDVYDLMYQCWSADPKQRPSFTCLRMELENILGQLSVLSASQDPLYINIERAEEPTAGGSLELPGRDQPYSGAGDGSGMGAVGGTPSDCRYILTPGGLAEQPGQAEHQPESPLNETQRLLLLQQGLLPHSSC
MEASUREMENT TYPE: pIC50
Quick note: pIC50 means taking -log10 of the concentration in moles per liter.

Given the compound Nc1ncc(-c2cnn(C3CCNCC3)c2)cc1-c1nnc(CC2CC2)o1 [SLC-391] , what is its reported pIC50?
7.37

---

SYSTEM UNDER TEST: UniProt Q12809
Sequence (Q12809 whole entry): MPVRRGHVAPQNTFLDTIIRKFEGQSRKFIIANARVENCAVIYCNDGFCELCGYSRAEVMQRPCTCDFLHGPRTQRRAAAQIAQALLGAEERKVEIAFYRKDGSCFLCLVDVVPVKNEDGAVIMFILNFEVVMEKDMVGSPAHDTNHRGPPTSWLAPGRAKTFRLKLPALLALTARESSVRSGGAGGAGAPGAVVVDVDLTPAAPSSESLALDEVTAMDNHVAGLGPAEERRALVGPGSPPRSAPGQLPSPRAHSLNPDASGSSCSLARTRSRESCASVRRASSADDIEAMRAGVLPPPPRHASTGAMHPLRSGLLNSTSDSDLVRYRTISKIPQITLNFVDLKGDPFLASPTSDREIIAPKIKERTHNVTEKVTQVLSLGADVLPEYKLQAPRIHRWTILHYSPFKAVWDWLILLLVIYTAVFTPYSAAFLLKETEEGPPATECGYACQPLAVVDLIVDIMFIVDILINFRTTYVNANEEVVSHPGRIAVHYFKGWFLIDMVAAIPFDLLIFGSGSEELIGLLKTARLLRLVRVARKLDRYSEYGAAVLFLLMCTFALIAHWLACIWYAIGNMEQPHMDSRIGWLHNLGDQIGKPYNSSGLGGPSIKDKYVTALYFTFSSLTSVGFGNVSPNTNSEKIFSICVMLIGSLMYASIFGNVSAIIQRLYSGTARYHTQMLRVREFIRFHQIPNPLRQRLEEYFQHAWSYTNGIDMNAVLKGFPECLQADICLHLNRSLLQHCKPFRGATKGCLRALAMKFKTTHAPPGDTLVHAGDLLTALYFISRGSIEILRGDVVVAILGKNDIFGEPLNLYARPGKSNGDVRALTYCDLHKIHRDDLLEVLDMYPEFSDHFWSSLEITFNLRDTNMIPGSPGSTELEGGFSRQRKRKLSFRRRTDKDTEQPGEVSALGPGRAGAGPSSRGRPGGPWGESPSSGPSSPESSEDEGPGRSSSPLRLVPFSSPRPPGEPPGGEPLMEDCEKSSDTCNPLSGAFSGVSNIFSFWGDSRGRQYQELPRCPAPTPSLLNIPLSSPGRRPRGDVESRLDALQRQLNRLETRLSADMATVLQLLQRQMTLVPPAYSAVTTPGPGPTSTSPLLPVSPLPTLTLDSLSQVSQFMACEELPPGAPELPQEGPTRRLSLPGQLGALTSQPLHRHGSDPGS
MEASUREMENT TYPE: IC50

Please tell me: IC50 of Nc1ncc(-c2cnn(C3CCNCC3)c2)cc1-c1nnc(CC2CC2)o1 [SLC-391] , system UniProt Q12809?
> 30 µM

---

ASSAY NOTES: in vitro
RUN CONDITIONS: human
MEASUREMENT TYPE: CC50

Find the recorded CC50 belonging to Nc1ncc(-c2cnn(C3CCNCC3)c2)cc1-c1nnc(CC2CC2)o1 [SLC-391] and report it.
> 10 µM
